- ASSAY_SYSTEM: Gal6S(b1-4)Glc6S
- TEST_DESCRIPTION: glycan array binding signal (z-score within array); higher = stronger binding
- TEST_CONDITIONS: glycan notation: IUPAC condensed, linker removed
The entries come from a sample that favours the strongest signals as a whole.
Here the recorded glycan array binding signal (z-score) is given for each entry.
Note: the reply should be a number with no unit written.

BINDER	OBSERVED_MEASUREMENT
MIG/CXCL9 (Homo sapiens) (protein) TPVVRKGRCSCISTNQGTIHLQSLKDLKQFAPSPSCEKIEIIIATLKNGVQTCLNPDSADVKELIKKTEKQVSQKKKQKNGKKHQKKKVLKVRKSQRSRQKKTT	2.35

The record that follows has no glycan array binding signal (z-score) shown yet.
// query // returns reported glycan array binding signal (z-score) for input FBG4 (Homo sapiens), Q96EF6 (protein) MGARLSRRRLPADPSLALDALPPELLVQVLSHVPPRSLVTRCRPVCRAWRDIVDGPTVWLLQLARDRSAEGRALYAVAQRCLPSNEDKEEFPLCALARYCLRAPFGRNLIFNSCGEQGFRGWEVEHGGNGWAIEKNLTPVPGAPSQTCFVTSFEWCSKRQLVDLVMEGVWQELLDSAQIEICVADWWGARENCGCVYQLRVRLLDVYEKEVVKFSASPDPVLQWTERGCRQVSHVFTNFGKGIRYVSFEQYGRDVSSWVGHYGALVTHSSVRVRIRLS
// result 3.24
